# study.target: ΔF508-CFTR (Homo sapiens, UniProt P13569, DEL508-508)
# Construct: expressed in transfected cells
# Sequence (P13569 with tags, fused parts or gaps DEL508-508): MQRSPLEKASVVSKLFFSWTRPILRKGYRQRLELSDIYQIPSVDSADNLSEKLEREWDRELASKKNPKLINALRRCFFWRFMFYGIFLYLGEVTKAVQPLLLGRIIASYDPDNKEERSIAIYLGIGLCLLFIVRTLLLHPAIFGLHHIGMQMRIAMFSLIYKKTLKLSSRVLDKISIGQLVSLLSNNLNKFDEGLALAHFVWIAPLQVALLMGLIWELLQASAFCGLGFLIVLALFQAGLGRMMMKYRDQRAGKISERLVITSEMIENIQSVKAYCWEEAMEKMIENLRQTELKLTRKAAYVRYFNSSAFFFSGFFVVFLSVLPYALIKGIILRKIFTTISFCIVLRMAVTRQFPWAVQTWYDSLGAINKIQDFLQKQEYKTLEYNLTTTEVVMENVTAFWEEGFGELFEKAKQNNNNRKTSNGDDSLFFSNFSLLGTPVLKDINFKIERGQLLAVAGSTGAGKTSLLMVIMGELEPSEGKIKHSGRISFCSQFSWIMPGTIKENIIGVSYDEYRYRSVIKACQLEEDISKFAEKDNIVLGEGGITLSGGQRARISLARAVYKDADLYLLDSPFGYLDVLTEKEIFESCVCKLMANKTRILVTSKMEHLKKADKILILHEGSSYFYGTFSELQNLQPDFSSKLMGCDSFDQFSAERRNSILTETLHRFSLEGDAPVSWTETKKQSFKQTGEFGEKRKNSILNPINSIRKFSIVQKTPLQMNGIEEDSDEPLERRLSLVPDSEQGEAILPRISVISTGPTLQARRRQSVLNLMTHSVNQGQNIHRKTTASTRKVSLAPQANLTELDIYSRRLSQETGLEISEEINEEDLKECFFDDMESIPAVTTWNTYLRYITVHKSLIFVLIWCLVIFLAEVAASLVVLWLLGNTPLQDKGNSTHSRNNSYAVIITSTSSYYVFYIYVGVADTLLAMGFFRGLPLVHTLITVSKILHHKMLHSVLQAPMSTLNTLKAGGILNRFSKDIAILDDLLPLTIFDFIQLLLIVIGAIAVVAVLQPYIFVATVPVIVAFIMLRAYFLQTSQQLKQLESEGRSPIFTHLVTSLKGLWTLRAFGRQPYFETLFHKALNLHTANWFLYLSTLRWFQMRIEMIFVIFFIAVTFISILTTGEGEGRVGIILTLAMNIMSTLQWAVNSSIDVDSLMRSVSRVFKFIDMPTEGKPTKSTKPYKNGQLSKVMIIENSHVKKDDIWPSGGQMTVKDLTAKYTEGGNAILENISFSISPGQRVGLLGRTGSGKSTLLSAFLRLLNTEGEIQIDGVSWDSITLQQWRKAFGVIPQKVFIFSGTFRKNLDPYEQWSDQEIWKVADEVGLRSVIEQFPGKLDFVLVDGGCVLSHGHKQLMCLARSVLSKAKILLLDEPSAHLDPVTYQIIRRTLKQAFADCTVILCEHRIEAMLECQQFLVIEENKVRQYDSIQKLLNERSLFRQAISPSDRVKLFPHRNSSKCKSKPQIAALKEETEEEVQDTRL
# experiment: Membrane potential optical assay (FRET/VIPR), identification of correction compounds
# Type: cell-based
# experimental.parameters: relative efficacy
In this section, each of the compounds is paired with its reported Emax.

// map CCCC(c1nc2ccccc2c(=O)n1C)N1CCN(S(=O)(=O)c2ccc(OC)cc2)CC1 (stereo not shown) to recorded Emax (system: ΔF508-CFTR (Homo sapiens, UniProt P13569, DEL508-508))
> 100%

Report Emax for CCOC(=O)c1cnc(C(C)N2CCN(S(=O)(=O)c3ccc(OC)cc3)CC2)[nH]c1=O (stereo not shown) tested on ΔF508-CFTR (Homo sapiens, UniProt P13569, DEL508-508).
25 to 100%

Provide the documented Emax with ΔF508-CFTR (Homo sapiens, UniProt P13569, DEL508-508) as the system for COc1ccc(S(=O)(=O)N2CCN(C(C)c3nc(OC4CCC(O)CC4)c4ccccc4n3)CC2)cc1 (stereo not shown)
25 to 100%

Field: Emax (ΔF508-CFTR (Homo sapiens, UniProt P13569, DEL508-508)). Entry: Cc1ccc(S(=O)(=O)N2CCN(C(C)c3nc4cc(Cl)ccc4c(=O)n3C)CC2)cc1 (stereo not shown)
> 100%

Query the reported Emax for ΔF508-CFTR (Homo sapiens, UniProt P13569, DEL508-508); item: CC(c1nc2ccccc2c(=O)n1C)N1CCN(S(=O)(=O)c2ccc(-c3cc(C(F)(F)F)nn3C)s2)CC1 (stereo not shown)
< 25%

Request body: readout Emax, system ΔF508-CFTR (Homo sapiens, UniProt P13569, DEL508-508), query COc1cccc(S(=O)(=O)N2CCN(C(C)c3nc4ccccc4c(=O)n3C)CC2)c1 (stereo not shown) . Return the value.
25 to 100%

GET /values?readout=Emax&system=ΔF508-CFTR (Homo sapiens, UniProt P13569, DEL508-508)&item= COc1ccc(S(=O)(=O)N2CCN(C(C)c3nc(N4CCC(O)CC4)c4ccccc4n3)CC2)cc1 (stereo not shown)
25 to 100%

So what Emax did COc1ccc(S(=O)(=O)N2CCN(C(C)c3nc4cccc(Cl)c4c(=O)n3C)CC2)cc1 (stereo not shown) get with ΔF508-CFTR (Homo sapiens, UniProt P13569, DEL508-508)?
< 25%

Requested read-out Emax, target or system ΔF508-CFTR (Homo sapiens, UniProt P13569, DEL508-508), entry CC(c1nc2ccccc2c(=O)n1C)N1CCN(S(C)(=O)=O)CC1 (stereo not shown)
< 25%

Lookup: Emax / ΔF508-CFTR (Homo sapiens, UniProt P13569, DEL508-508) / CC(c1nc2ccccc2c(=O)n1C)N1CCN(S(=O)(=O)c2cccs2)CC1 (stereo not shown)
< 25%

Write down the reported Emax of COc1ccc(S(=O)(=O)N2CCN(C(C)c3nc(N4CCOCC4)c4ccccc4n3)CC2)cc1 (stereo not shown) , test system: ΔF508-CFTR (Homo sapiens, UniProt P13569, DEL508-508).
25 to 100%

I'm curious: which Emax was measured for COc1ccc(S(=O)(=O)N2CCN(C(C)c3nc(OC4CCCC4)c4cc(F)ccc4n3)CC2)cc1 (stereo not shown) tested on ΔF508-CFTR (Homo sapiens, UniProt P13569, DEL508-508)?
> 100%

Form: Entry = CC(c1nc2ccccc2c(=O)n1C)N1CCN(S(=O)(=O)c2ccc3oc(=O)ccc3c2)CC1 (stereo not shown) | System = ΔF508-CFTR (Homo sapiens, UniProt P13569, DEL508-508) | Emax = ____
25 to 100%

Record COc1ccc(S(=O)(=O)N2CCN(C(C)c3ncc(CO)c(N4CCCCC4)n3)CC2)cc1 (stereo not shown) : what is its Emax with ΔF508-CFTR (Homo sapiens, UniProt P13569, DEL508-508)?
25 to 100%

API: value(readout=Emax, system=ΔF508-CFTR (Homo sapiens, UniProt P13569, DEL508-508)) for record COc1ccc(S(=O)(=O)N2CCN(C(C)c3nc4ccc(C(N)=O)cc4c(=O)n3C)CC2)cc1 (stereo not shown)
25 to 100%

Which Emax is reported with ΔF508-CFTR (Homo sapiens, UniProt P13569, DEL508-508) for this entry: CC(c1nc2ccc(Cl)cc2c(=O)n1C)N1CCN(S(=O)(=O)c2cccc(Cl)c2)CC1 (stereo not shown) ?
25 to 100%
